# Target entity: T1, Ang2 with K468 mutated with alanine, tagged with FLAG (human, UniProt O15123 19-496, limits assumed)
# T1 sequence: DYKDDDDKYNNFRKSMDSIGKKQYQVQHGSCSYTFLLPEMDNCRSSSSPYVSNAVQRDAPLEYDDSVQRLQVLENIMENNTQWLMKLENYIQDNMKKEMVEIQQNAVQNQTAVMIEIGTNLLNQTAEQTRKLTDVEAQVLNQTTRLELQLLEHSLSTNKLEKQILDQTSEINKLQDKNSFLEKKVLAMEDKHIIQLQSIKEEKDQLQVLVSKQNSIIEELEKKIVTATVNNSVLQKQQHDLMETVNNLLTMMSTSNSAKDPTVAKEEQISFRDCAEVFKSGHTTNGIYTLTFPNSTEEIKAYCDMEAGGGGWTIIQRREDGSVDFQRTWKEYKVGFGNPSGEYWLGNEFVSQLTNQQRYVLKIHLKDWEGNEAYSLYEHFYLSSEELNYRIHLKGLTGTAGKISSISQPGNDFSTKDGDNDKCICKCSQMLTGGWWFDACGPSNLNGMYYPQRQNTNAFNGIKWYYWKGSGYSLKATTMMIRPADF
# Procedure text: ELISA, scFv coated, 250 ng FLAG-tagged Ang2 mutant, anti-FLAG-HRP
Quantity name: Relative binding (%) with Mutant Ang2 compared to the binding with native Ang2
One number for each entry, in %.

>>> reading("SAIT-ANG-2-AB-8-A5 (scFv form) (scFv, V domains shown, scFv from a phage display library) VH: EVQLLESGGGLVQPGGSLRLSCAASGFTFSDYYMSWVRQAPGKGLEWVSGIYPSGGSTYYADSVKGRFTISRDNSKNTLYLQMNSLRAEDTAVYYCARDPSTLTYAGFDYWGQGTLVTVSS VL: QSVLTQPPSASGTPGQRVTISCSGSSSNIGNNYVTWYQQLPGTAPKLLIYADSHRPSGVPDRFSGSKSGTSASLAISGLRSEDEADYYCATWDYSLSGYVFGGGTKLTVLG")
101
>>> reading("SAIT-ANG-2-AB-2-E6 (scFv form) (scFv, V domains shown, scFv from a phage display library, partly purified from E. coli periplasm on Ni-NTA and detected with anti-HA) VH: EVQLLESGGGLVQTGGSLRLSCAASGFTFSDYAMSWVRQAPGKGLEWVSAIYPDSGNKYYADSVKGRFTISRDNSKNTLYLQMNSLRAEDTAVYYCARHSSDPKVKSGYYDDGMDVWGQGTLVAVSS VL: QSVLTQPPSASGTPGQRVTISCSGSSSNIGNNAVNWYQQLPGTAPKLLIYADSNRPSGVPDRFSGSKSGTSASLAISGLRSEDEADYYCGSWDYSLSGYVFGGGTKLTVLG")
94
>>> reading("SAIT-ANG-2-AB-7-C9 (scFv form) (scFv, V domains shown, scFv from a phage display library) VH: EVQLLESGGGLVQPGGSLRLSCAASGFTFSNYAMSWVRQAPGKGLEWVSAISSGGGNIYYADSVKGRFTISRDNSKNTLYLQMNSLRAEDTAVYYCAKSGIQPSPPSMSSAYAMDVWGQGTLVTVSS VL: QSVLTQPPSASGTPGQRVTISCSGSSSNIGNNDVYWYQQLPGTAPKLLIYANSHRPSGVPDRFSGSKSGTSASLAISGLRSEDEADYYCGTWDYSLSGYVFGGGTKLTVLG")
97.3
>>> reading("SAIT-ANG-2-AB-4-F5 (scFv form) (scFv, V domains shown, scFv from a phage display library) VH: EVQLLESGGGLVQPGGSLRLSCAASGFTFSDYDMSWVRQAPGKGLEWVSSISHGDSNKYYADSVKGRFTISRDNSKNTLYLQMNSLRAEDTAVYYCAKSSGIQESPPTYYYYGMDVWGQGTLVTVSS VL: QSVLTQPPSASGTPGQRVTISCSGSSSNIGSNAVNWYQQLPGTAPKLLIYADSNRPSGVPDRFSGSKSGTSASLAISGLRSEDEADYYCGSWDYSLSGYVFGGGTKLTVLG")
87.4
>>> reading("SAIT-ANG-2-AB-4-C11 (scFv form) (scFv, V domains shown, scFv from a phage display library) VH: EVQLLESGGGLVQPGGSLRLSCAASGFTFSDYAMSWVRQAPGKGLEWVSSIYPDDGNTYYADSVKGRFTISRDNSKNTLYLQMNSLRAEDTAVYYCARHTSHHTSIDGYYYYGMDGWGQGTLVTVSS VL: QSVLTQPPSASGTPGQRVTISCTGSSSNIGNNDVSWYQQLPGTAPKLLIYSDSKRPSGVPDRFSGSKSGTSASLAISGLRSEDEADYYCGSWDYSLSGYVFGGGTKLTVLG")
94.8

Query: GET /values?readout=Relative binding (%) with Mutant Ang2 compared to the binding with native Ang2&item= SAIT-ANG-2-AB-3-D3 (scFv form) (scFv, V domains shown, scFv from a phage display library) VH: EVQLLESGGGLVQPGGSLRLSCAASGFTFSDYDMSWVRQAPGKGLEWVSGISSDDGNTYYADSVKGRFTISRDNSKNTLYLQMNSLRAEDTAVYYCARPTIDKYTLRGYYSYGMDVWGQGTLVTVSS VL: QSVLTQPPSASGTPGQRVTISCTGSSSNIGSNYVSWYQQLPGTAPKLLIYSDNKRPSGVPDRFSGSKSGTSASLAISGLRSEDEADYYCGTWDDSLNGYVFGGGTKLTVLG
Response: 95.9
